- TARGET_DESC: UniProtKB Q96EB6
- Sequence (Q96EB6 whole entry): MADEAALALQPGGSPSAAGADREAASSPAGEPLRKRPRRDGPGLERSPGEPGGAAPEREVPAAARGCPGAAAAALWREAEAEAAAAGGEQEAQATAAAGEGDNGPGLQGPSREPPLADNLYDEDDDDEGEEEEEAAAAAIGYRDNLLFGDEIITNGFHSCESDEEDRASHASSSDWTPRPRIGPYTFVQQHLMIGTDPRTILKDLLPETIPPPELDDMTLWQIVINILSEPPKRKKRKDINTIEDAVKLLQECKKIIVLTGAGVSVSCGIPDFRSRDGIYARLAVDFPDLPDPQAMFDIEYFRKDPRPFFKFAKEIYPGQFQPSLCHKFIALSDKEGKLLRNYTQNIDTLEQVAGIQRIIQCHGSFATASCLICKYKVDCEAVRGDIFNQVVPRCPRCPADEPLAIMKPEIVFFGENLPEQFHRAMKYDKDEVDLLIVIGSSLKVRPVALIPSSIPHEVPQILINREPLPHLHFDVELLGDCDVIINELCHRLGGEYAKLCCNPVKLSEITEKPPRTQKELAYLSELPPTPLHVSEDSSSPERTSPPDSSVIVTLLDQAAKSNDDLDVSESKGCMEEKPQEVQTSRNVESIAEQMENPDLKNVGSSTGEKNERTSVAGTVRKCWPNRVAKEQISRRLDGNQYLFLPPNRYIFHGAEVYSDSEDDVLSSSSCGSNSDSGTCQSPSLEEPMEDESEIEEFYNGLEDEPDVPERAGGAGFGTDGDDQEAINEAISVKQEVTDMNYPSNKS
- EXPERIMENT: SIRT1 mass spectrometry (MS) based deacetylation assay
- Format: biochemical
- MEASUREMENT_CONDITIONS: SIRT1 activation, mass spectrometry assay; read-out: ED50 MS ASSAY
pEC50: −log10 of the molar value.
EXPERIMENTAL_ENDPOINT: pEC50

IN: Enter reported pEC50 observed with UniProtKB Q96EB6 for COc1ccc(C(=O)Nc2cccc(-c3nc4ncccc4s3)c2)c(OC)c1OC [Compound 198]
OUT: 4.30 to 5.30

IN: What pEC50 appears in the records for this molecule with UniProtKB Q96EB6? COc1ccc(C(=O)Nc2ccccc2-c2cnc3ccccc3c2)c(OC)c1 [Compound 413]
OUT: 4.00 to 4.29

IN: Kindly state the measured pEC50 obtained for CN(C)c1cccc(C(=O)Nc2ccc(-c3nc4cccnc4[nH]3)cc2)c1 [Compound 180] with UniProtKB Q96EB6.
OUT: 4.30 to 5.30

IN: What pEC50 appears in the records for this molecule with UniProtKB Q96EB6? COc1cc(C(=O)Nc2ccccc2-c2nc3cnccc3o2)cc(OC)c1OC [Compound 405]
OUT: > 5.30

IN: Checklist item: pEC50 tested on UniProtKB Q96EB6, entry COc1cc(C(=O)Nc2ccccc2-c2nc3ccccn3c2CN2CCNCC2)cc(OC)c1OC [Compound 362] , value?
OUT: 4.00 to 4.29

IN: Record COc1cc(OC)cc(C(=O)Nc2ccccc2-c2nc3cnccc3o2)c1 [Compound 404] : what is its pEC50 with UniProtKB Q96EB6?
OUT: > 5.30

IN: So what pEC50 did COc1cc(C(=O)Nc2ccccc2-c2nc3ccccc3[nH]2)cc(OC)c1OC [Compound 293] get with UniProtKB Q96EB6?
OUT: > 5.30

IN: Find pEC50 (UniProtKB Q96EB6) for the entry CN(C)c1cccc(C(=O)N2CCCN(c3nc4ccccc4o3)CC2)c1 [Compound 89]
OUT: < 3.82

IN: What reported pEC50 corresponds to Cc1cc(C(=O)Nc2cccc(-c3nc4ccncc4s3)c2)no1 [Compound 304] on UniProtKB Q96EB6?
OUT: > 5.30

IN: Short answer please: pEC50, UniProtKB Q96EB6, entry COc1ccc(-c2ccc(C(=O)Nc3ccccc3-c3cn4c(CN5CCNCC5)csc4n3)o2)cc1 [Compound 736]
OUT: > 5.30

IN: Record lookup: for UniProtKB Q96EB6, what pEC50 belongs to COc1cc(C(=O)Nc2ccccc2-c2nc3cc(CN4CCN(C)CC4)cnc3s2)cc(OC)c1OC [Compound 702] ?
OUT: 4.30 to 5.30

IN: Hi! What's the reported pEC50 for CN(C)c1cccc(C(=O)Nc2cccc(-c3nc4ccncc4o3)c2)c1 [Compound 453] on UniProtKB Q96EB6?
OUT: 4.30 to 5.30

IN: UniProtKB Q96EB6 / pEC50 / c1cc(Nc2nc3ccccc3s2)cc(-c2nc3ncccc3o2)c1 [Compound 95] : value?
OUT: > 5.30

IN: Observed pEC50 on UniProtKB Q96EB6 for Cc1ccc(C(=O)Nc2ccccc2-c2nc3ccc(CN4CCNCC4)nc3s2)cc1C [Compound 727] , please.
OUT: > 5.30

IN: GET /values?readout=pEC50&system=UniProtKB Q96EB6&item= c1cc(Nc2nc3ccccc3o2)cc(-c2nc3ncccc3o2)c1 [Compound 93]
OUT: 4.30 to 5.30

IN: Fill in the recorded pEC50 for this molecule, with UniProtKB Q96EB6 as test system: O=C(Nc1ccc(-c2nc3ncccc3o2)cc1)c1ccc(N2CCCC2)cc1 [Compound 29]
OUT: < 3.82

IN: Field: pEC50 (UniProtKB Q96EB6). Entry: COc1ccc(C(=O)Nc2ccccc2-c2nc3ccncc3s2)cc1OC [Compound 162]
OUT: > 5.30

IN: Short answer please: pEC50, UniProtKB Q96EB6, entry O=C(Nc1ccccc1-c1cn2c(CN3CCC(F)CC3)csc2n1)c1cnc2ccccc2n1 [Compound 714]
OUT: 4.30 to 5.30

IN: Find pEC50 (UniProtKB Q96EB6) for the entry COc1cc(C(=O)Nc2ccccc2-c2cn3c(C)csc3n2)cc(OC)c1OC [Compound 739]
OUT: > 5.30

IN: So what pEC50 did O=C(NCc1ccc2c(c1)OCO2)c1cccc(-c2nc3ncccc3o2)c1 [Compound 103] get with UniProtKB Q96EB6?
OUT: < 3.82

IN: Which measured pEC50 belongs to CN(C)c1cccc(C(=O)Nc2cccc(-c3nc4cnccc4s3)c2)c1 [Compound 402] , tested on UniProtKB Q96EB6?
OUT: > 5.30

IN: Please provide the recorded pEC50 for O=C(Nc1ccccc1-c1cn2c(CN3CCNCC3)csc2n1)c1ccc2c(c1)OCO2 [Compound 329] , tested on UniProtKB Q96EB6.
OUT: 4.30 to 5.30

IN: Hi! What's the reported pEC50 for COc1ccc(C(=O)Nc2ccccc2-c2cn3ccccc3n2)cc1OC [Compound 266] on UniProtKB Q96EB6?
OUT: > 5.30

IN: Form: Entry = COc1ccc(C(=O)Nc2ccccc2-c2nc3ccccc3n2C)cc1OC [Compound 314] | System = UniProtKB Q96EB6 | pEC50 = ____
OUT: 4.30 to 5.30

IN: Report pEC50 for COc1ccc(C(=O)Nc2cc(CN(C)C)cc(-c3nc4ncccc4o3)c2)cc1OC [Compound 156] tested on UniProtKB Q96EB6.
OUT: 4.30 to 5.30

IN: Which measured pEC50 belongs to CN(C)c1cccc(C(=O)Nc2cc(C(=O)N3CCNCC3)cc(-c3nc4ncccc4o3)c2)c1 [Compound 138] , tested on UniProtKB Q96EB6?
OUT: 4.30 to 5.30

IN: Entry COc1cc(C(=O)Nc2ccccc2-c2cc3ccccc3[nH]2)cc(OC)c1OC [Compound 255] , system UniProtKB Q96EB6: what pEC50 was measured?
OUT: > 5.30

IN: Fill in the recorded pEC50 for this molecule, with UniProtKB Q96EB6 as test system: COc1cc(C(=O)Nc2ccccc2-c2cn3cccnc3n2)cc(OC)c1OC [Compound 439]
OUT: > 5.30

IN: Lab request: please report pEC50 under test system UniProtKB Q96EB6 for COc1cc(OC)cc(C(=O)Nc2ccccc2-c2nc3c(CN4CCNCC4)ccnc3s2)c1 [Compound 723]
OUT: 4.30 to 5.30

IN: Give recorded pEC50 with UniProtKB Q96EB6 for the following molecule: CN(C)CCNC(=O)c1cc(NC(=O)c2cccc(N(C)C)c2)cc(-c2nc3ncccc3o2)c1 [Compound 154]
OUT: 3.82 to 4.00

IN: For UniProtKB Q96EB6, provide pEC50 of COc1ccc(C(=O)Nc2cccc(-c3nc4cccnc4s3)c2)c(OC)c1 [Compound 213] please.
OUT: > 5.30

IN: Record lookup: for UniProtKB Q96EB6, what pEC50 belongs to c1cc(Nc2nc3ccccc3s2)nc(-c2nc3ncccc3o2)c1 [Compound 104] ?
OUT: > 5.30

IN: Please state recorded pEC50 (tested on UniProtKB Q96EB6) of COc1ccc(C(=O)Nc2ccccc2-c2cccs2)cc1OC [Compound 335]
OUT: 4.30 to 5.30

IN: State its pEC50 on UniProtKB Q96EB6: CN(C)c1cccc(C(=O)Nc2cc(CN3CCNCC3)cc(-c3nc4ncccc4o3)c2)c1 [Compound 160]
OUT: 4.00 to 4.29

IN: Any idea what pEC50 came out for COc1ccc(C(=O)Nc2ccc(-c3nc4ncccc4o3)cc2)cc1OC [Compound 33] on UniProtKB Q96EB6?
OUT: < 3.82
